meta.source: PubChem BioAssay (NCI)

Hi there, I'd appreciate the recorded TGI for every entry that follows.
tested on: MDA-MB-231 breast; experiment: NCI tumour cell line growth inhibition, 48 h

Returns the measured TGI for the input compound. Input: Fc1sc2c(c1F)C1CCC2C1 (configuration not stated)
> 100 µM

Query: TGI; subject: COC(=O)C1=C(C)NC(C)=C(C(=O)OC)C1c1ccccc1[N+](=O)[O-]
> 100 µM

// lookup TGI for COC1OC(=O)C(OC)C(OC)C1OC (configuration not stated)
> 100 µM

Looking for the measured TGI of Nc1ccc(Sc2ccc3c4c2cccc4c(=O)n2c4ccccc4nc32)cc1 , can you help?
30 µM

I'd like to know its TGI. The compound in question is O=C1/C(=C/Cc2ccco2)N=C(c2ccccc2)N1c1nc2c(Cl)cc(Cl)cc2s1
82.2 µM

Report TGI for CC(C)c1cc(C(C)C)c(B(c2ccccc2)c2ccccc2)c(C(C)C)c1Br please.
> 100 µM

Item under review: NC(=O)c1nnc2c(F)cccc2c1N . Reported TGI?
> 100 µM

Consider the compound CC(=O)OC1COC(n2c(N)c(C#N)c(-c3ccccc3)c(C#N)c2=S)C(OC(C)=O)C1OC(C)=O (configuration not stated) and give its measured TGI.
> 100 µM

I am curious: what TGI value has been reported for O=S1(=O)OCCOS(=O)(=O)C1S(=O)(=O)c1cccc2ccccc12 ?
> 100 µM

Find the recorded TGI belonging to [O-][n+]1cc(SCc2ccccc2)ncc1SCc1ccccc1 and report it.
> 10 µM

Please give the measured TGI for this compound: COc1cc(C2CC(c3cc(Cl)c(C)cc3O)=NN2c2ccc(S(N)(=O)=O)cc2)cc(OC)c1OC (configuration not stated)
5.01 µM

Need TGI of N#CSc1cc(-c2nc3ccccc3o2)ccc1N , thanks.
> 100 µM

Return reported TGI; argument: S=C1NNC(=S)NN1
> 1 µM

Bench note: what TGI did CCOC(=O)CCC(NC(=O)c1ccc(Nc2nc3cc(N)cc(N)c3nc2-c2ccccc2)cc1)C(=O)OCC (configuration not stated) show?
> 53.2 µM

// returns reported TGI for input c1ccc(-c2nn(-c3ccccc3)[n+](-c3ccccc3-c3ccccc3)n2)cc1
9.21 µM

What value of TGI has been reported for the following compound? CC1C/C(=C\c2ccc(O)c(O)c2)C(=O)/C(=C/c2ccc(O)c(O)c2)C1 (configuration not stated)
43.4 µM

Given the compound Cn1cc(C2=C(c3cccc(Cl)c3)C(=O)NC2=O)c2ccccc21 , what is its reported TGI?
> 25 µM

Returns the measured TGI for the input compound. Input: COC(=O)CCCCCCCCC(=O)c1c(C)[nH]c(/C=C2\N=C(c3ccc[nH]3)C=C2OC)c1C
> 100 µM

Which TGI value is on record for N#Cc1nc(-c2ccccn2)c(-c2ccccn2)nc1C#N ?
> 53 µM

Param item = COc1cc2cc(C(=O)N3C[C@H](CCl)c4c3cc(O)c3ccccc43)[nH]c2c(OC)c1OC ; retrieve measured TGI.
3.94 µM

Any idea what TGI was measured for C=C1CC2C[C@H](OS(=O)(=O)c3ccc(C)cc3)C(C1)N2C (some centres not stated) ?
> 100 µM

State the recorded TGI for this entry: CC(=O)OCC12C(OC(C)=O)C[C@@H](C)C3(CC(c4ccoc4)OC3=O)C1CCC(OC(C)=O)C21CO1 (some centres not stated)
> 100 µM

====

test system: SR leukemia; test: NCI tumour cell line growth inhibition, 48 h
experimentalReadout: TGI (µM)
Express it in µM; write the number only.

# get_value(readout='TGI', item= C[C@@H]1CC(=O)[C@@]2(C)[C@](O)(CCC3O[C@]32C)[C@@]12CC(c1ccoc1)OC2=O (some centres undefined) )
68.5

Any idea what TGI was measured for CCOC(=O)N1c2c(c3ccccc3n2C(=O)OCC)C(=O)C(OC)N1C(=O)OCC (centres undefined) ?
45.1

# lookup: TGI of O=C(OCC(OC(=O)c1ccccc1)C1CC(C(O)C2CCCCC2)C(=O)O1)c1ccccc1 (centres undefined)
44.8

Entry CN1C(=O)[C@](C)(Cc2ccc(F)cc2)N(C(=O)OC(C)(C)C)[C@@H]1C(C)(C)C : reported TGI = ?
43.9

# get_value(readout='TGI', item= Cn1cc(C2=C(c3cn(C)c4cc(Cl)ccc34)C(=O)NC2=O)c2ccccc21 )
6.38

Which measured TGI value corresponds to CCn1c(-c2nonc2N)nc2c(C#CC(C)(C)O)ncc(OCC3CCNCC3)c21 ?
24.4

What value of TGI has been recorded for this entry: COc1cc2cc(C(=O)N3C[C@H](CCl)c4c3cc(O)c3ccccc43)[nH]c2c(OC)c1OC
0.0672

====

tested on: OVCAR-8 ovarian; assay: NCI tumour cell line growth inhibition, 48 h
experimentalReadout: TGI

Field request: TGI | item: CC1=NNC(N)=N/C1=C\C(Sc1ccc(Cl)cc1)c1ccc(Cl)cc1Cl (configuration not stated)
31.7 µM

// TGI lookup, key: C=CCN1C(=O)C/C(=C2/CCC(=O)N2CC=C)C1=O
> 100 µM

Query: TGI; subject: N#Cc1nc(-c2ccccn2)c(-c2ccccn2)nc1C#N
15.3 µM

Requested read-out: TGI. Entry: CC(=O)N1C(=O)/C(=C\C(=O)c2ccc(Cl)cc2)c2ccccc21
33.7 µM

I would be grateful if you could share the reported TGI for C/C(CC(=O)Nc1cc(Cl)c(Cl)cc1Cl)=N\NS(=O)(=O)c1ccc(C)cc1 .
> 100 µM

State the recorded TGI for this entry: Cc1cc(N)c2cc(NC(=O)CCCCCCCCC(=O)Nc3ccc4nc(C)cc(N)c4c3)ccc2n1
> 100 µM

Reported TGI, molecule CCc1cc(Nc2nccc(-c3c(-c4ccc(OC)c(C(=O)Nc5c(F)cccc5F)c4)nc4ccccn34)n2)c(OC)cc1N1CCC(N2CCN(S(C)(=O)=O)CC2)CC1 : ____
> 100 µM

Quick one: TGI for CN1CCN(Cc2ccc(NC(=O)c3cncc(C#Cc4cncc5[nH]ncc45)c3)cc2C(F)(F)F)CC1 ?
6.73 µM

Query (molecule): CO/C=C(/C(=O)OC)c1ccccc1[C@H]1C[C@@H]1c1ccccc1 ; field requested: TGI
> 100 µM

Look up TGI: C=C1C(=O)O[C@H]2[C@H]1CC/C(COC(=O)c1ccc(Br)cc1)=C\CC[C@@]1(C)O[C@@H]21
5 µM

Entry COc1ccc(OC)c(/C=C/C(=O)c2ccc(SC)cc2)c1 has what TGI?
68.7 µM

What does the record list as TGI for C/C(=C\COc1ccc2ccc(=O)oc2c1)CCC(=O)C(C)(C)O ?
76.3 µM

Endpoint output: TGI of [O-][n+]1cc(SCc2ccccc2)ncc1SCc1ccccc1 . Value?
> 10 µM

If you can, please state the reported TGI value of CN(C)/C=C/C(=O)c1cccc(C(=O)/C=C/N(C)C)n1 .
> 100 µM

So what does the record say about TGI for COc1ccc(Nc2ccnc3cc(Cl)ccc23)cc1CN(CCCl)CCCl ?
> 100 µM

# lookup: TGI of O=C1/C(=C/c2ccc(Cl)cc2)COc2ccc(Br)cc21
> 100 µM

// lookup TGI for Cn1ccnc1C(=O)/C=C/c1ccc(CC(=O)Nc2cc(F)c(F)c(F)c2)cc1
> 25 µM

Any idea what TGI was measured for Cc1cccc2c1C(=O)OC2(c1cccc2ccccc12)c1cccc2ccccc12 ?
> 100 µM

I have this molecule here, COC(=O)C1=C(C)NC(C)=C(C(=O)OC)C1c1ccccc1[N+](=O)[O-] , and I need its recorded TGI.
> 100 µM

Request the reported TGI associated with c1ccc(-c2nn(-c3ccccc3)[n+](-c3ccccc3-c3ccccc3)n2)cc1
12.5 µM

Quick check: TGI of CCOC(=O)/C=C/C(Br)=C(Br)/C=C/C(=O)OCC ?
21.3 µM

So what does the record say about TGI for COc1cc2ccc(C(=O)O)cc2cc1OC ?
> 100 µM

Looking for the measured TGI of Nc1nc(Cl)cc(NCC2CC(O)(CO)C2)n1 (configuration not stated) , can you help?
> 100 µM

Using the record for COC(=O)CCCCCCCCC(=O)c1c(C)[nH]c(/C=C2\N=C(c3ccc[nH]3)C=C2OC)c1C , report its TGI.
> 59.9 µM

State the recorded TGI for this entry: CCN(CC)CCC1(C(=O)OC)SCCc2ccc(C)cc21 (configuration not stated)
> 100 µM

Need TGI, item CCN(CC)Cc1cc(Nc2c3ccc(Cl)cc3nc3c(C)cccc23)ccc1O
3.45 µM

Any idea what TGI was measured for COC(=O)C([O][Ge]([CH3])([CH3])[CH3])c1ccccc1 (configuration not stated) ?
> 100 µM

Form field: reported TGI of N#CC(NNC(=O)c1c(Cl)c(Cl)c(Cl)c(Cl)c1-c1nc2ccc(C(=O)c3ccccc3)cc2[nH]1)c1cccc(Oc2ccccc2)c1 (configuration not stated)
> 100 µM

// query TGI value for entry Fc1ccc(-c2ncn(C3CCNCC3)c2-c2ccnc(Oc3ccc(Oc4ccccc4)cc3)n2)cc1
8.4 µM

// TGI lookup, key: CCOC(=O)CCN1C(=O)c2c(NC(=O)C(=O)O)cccc2S1(=O)=O
> 100 µM

Any idea what TGI was measured for c1ccc2c(Nc3ccc4c(c3)OCO4)c3ccoc3nc2c1 ?
46.4 µM

For the molecule shown here, COc1ccc(C(=O)C(CN(C)C)c2ccccc2)cc1 (configuration not stated) , give the reported TGI.
12.5 µM

Which TGI is listed for Cc1cccc2c1C(=O)/C(=C/c1ccccc1C(=O)O)C2 ?
> 100 µM

Entry COc1ccc2c(-c3csc(-c4c[nH]c5ccccc45)n3)c[nH]c2c1 : reported TGI = ?
> 60.6 µM

Tell me the measured TGI of O=C(O)c1ccccc1/C=C1/Nc2ccccc2C1=O , please.
> 100 µM

Give its TGI value. Item: CC(C)(CO)Nc1c(O)c2c(c(O)c1Cl)C(=O)C=CC2=O
2.71 µM

# lookup: TGI of CCCN(CCC)c1c([N+](=O)[O-])cc(C(N)=O)cc1[N+](=O)[O-]
> 100 µM

Would you mind telling me what TGI value was observed for Cc1cc(C)c(N)c(CO)c1 ?
> 100 µM

Which TGI reading was recorded for the molecule COc1ccc(OC)c([N+](=O)[O-])c1-c1nc2sc(C)cn2c1/C=N/N=C(N)N ?
76.8 µM

What value of TGI has been reported for the following molecule? Oc1[nH]c2ccccc2c1N=NC(=S)NCc1ccccn1
26.7 µM

Which TGI is reported for this molecule? COc1ccc(-c2nc3ncccn3c2-c2ccc(S(C)(=O)=O)cc2)cc1
> 100 µM

Given COC(=O)C1=C(c2cc(OC)c(OC)c(OC)c2)OC(c2cc(OC)c(OC)c(OC)c2)C1 (configuration not stated) , state its recorded TGI.
> 100 µM
